Let's go through some pIC50 measurements on UniProt P25774 together.
Sequence (P25774 whole entry): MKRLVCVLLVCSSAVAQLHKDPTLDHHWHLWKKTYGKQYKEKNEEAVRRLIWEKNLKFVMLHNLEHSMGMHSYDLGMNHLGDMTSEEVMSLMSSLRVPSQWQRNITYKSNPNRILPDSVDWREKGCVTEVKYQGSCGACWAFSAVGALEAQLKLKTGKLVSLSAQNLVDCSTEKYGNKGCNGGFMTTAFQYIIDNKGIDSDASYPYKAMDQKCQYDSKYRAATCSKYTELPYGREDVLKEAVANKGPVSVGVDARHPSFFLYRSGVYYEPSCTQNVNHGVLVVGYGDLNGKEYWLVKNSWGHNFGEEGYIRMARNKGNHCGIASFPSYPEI
Entry type: numeric. Quantity: pIC50, the -log10 of concentration in molar units.

Qu. Sample Cn1c(=O)n(C2CCN(CCCn3nc(-c4ccc(Cl)c(Cl)c4)c4c3CCN(S(C)(=O)=O)C4)CC2)c2cc(Cl)ccc21 — what was its pIC50?
Ans. 6.82

Qu. Sample CC(=O)N1CCc2c(c(-c3ccc(Cl)c(C)c3)nn2CC(O)CN2CCC(n3c(=O)[nH]c4ccccc43)CC2)C1 (stereo not given) — what was its pIC50?
Ans. 6.89

Qu. Sample CC(=O)N1CCc2c(c(-c3ccc(Br)cc3)nn2CC(O)CN2CCC(n3c(=O)[nH]c4ccccc43)CC2)C1 (stereo not given) — what was its pIC50?
Ans. 7.10

Qu. Sample CC(=O)N1CCc2c(c(-c3ccc(Cl)c(C)c3)nn2CC(O)CN2CCC(n3c(=O)[nH]c4cc(C)ccc43)CC2)C1 (stereo not given) — what was its pIC50?
Ans. 7.00

Qu. Sample CC(=O)N1CCc2c(c(-c3ccc(I)cc3)nn2CC(O)CN2CCC(n3c(=O)[nH]c4ccccc43)CC2)C1 (stereo not given) — what was its pIC50?
Ans. 6.92
